The origin of these recorded values is ChEMBL document CHEMBL4689842.

Consider the following compounds and their measured Population Mitochondria Different-Phenotype (%) readings.
Test system: HEK-293T
Assay: Multiplex assay against HEK293T
Format: toxicity, cell-based
Settings: human, 24 h, 10 µM, compound concentration 10 uM, replicate 2

CCCS(=O)(=O)Nc1ccc(F)c(C(=O)c2c[nH]c3ncc(Cl)cc23)c1F: 1%
C=CCn1c(=O)c2cnc(Nc3ccc(N4CCN(C)CC4)cc3)nc2n1-c1cccc(C(C)(C)O)n1: 53%
CCOc1cc(C(=O)N2CCC(N3CCN(C)CC3)CC2)ccc1Nc1ncc2c(n1)N(C1CCCC1)c1ccccc1C(=O)N2C: 97%
CCn1c(=O)c(-c2ccc(-c3cncs3)cc2Cl)cc2cnc(Nc3ccc(N4CCN(C)CC4)cc3)nc21: 39%

Population Mitochondria Different-Phenotype (%) recorded for this compound, CCN1CCN(c2ccc(Nc3cc(N(C)C(=O)Nc4c(Cl)c(OC)cc(OC)c4Cl)ncn3)cc2)CC1 , is 2%

Population Mitochondria Different-Phenotype (%) recorded for this compound, Cc1ccc(C(=O)Nc2cccc(C(F)(F)F)c2)cc1Nc1nc(-c2cccnc2)nc2c1cnn2C , is 95%

Population Mitochondria Different-Phenotype (%) recorded for this compound, Cc1cn(-c2cc(NC(=O)c3ccc(C)c(Nc4nccc(-c5cccnc5)n4)c3)cc(C(F)(F)F)c2)cn1 , is 68%

Population Mitochondria Different-Phenotype (%) recorded for this compound, CNC(=O)c1ccc(Nc2nc(OC3CCCC3)c3c(-c4ccc5nc(C)oc5c4)c[nH]c3n2)c(OC)c1 , is 11%

###

Test system: Fibroblast
Test: Multiplex assay against human fibroblast
Assay type: toxicity, cell-based
Conditions: 12 h, 1 µM, compound concentration 1 uM, replicate 1
Measure: Population Pyknosed Nuclei (%)
// return numeric value only (unit: %, not printed)

// solved cases for Population Pyknosed Nuclei (%) follow
CCc1cccc(CC)c1NC(=O)c1nn(C)c2c1CCc1cnc(Nc3ccc(N4CCN(C)CC4)cc3OC)nc1-2: 34
S=C(NCCCc1c[nH]cn1)NCCCN(Cc1ccc(Cl)c(Cl)c1)c1ccc(Br)cn1: 28
Cn1nc(C(F)(F)F)cc1-c1cnc(N2CCc3cc(S(=O)(=O)Nc4c(F)cc(Cl)cc4F)cc(N4CCCC4=O)c32)nc1: 20

Below: the item to evaluate.
Population Pyknosed Nuclei (%) recorded for this molecule, COC(=N)c1nc2ccc3ncnc(Nc4ccc(OC)cc4F)c3c2s1 , is 9

###

Consider the following compounds and their measured Population Fragmented Nuclei (%) readings.
Test system: Fibroblast
Test: Multiplex assay against human fibroblast
Type: toxicity, cell-based
Settings: 24 h, 1 µM, compound concentration 1 uM, replicate 1
// return numeric value only (unit: %, not printed)

// solved cases for Population Fragmented Nuclei (%) follow
CN1C2CCC1CC(OC(c1ccc(F)cc1)c1ccc(F)cc1)C2.Cl (stereo not drawn): 24
CN1CCC(=C2c3ccccc3CC(=O)c3sccc32)CC1.O=C(O)/C=C/C(=O)O [KETOTIFEN FUMARATE]: 25
O=C1N/C(=N/c2ccccc2F)S/C1=C\c1ccc(C(=O)O)cc1: 26

Population Fragmented Nuclei (%) recorded for this compound, CCOc1cc2ncc(C#N)c(Nc3ccc(OCc4ccccn4)c(Cl)c3)c2cc1NC(=O)/C=C/CN(C)C [NERATINIB] , is 21

Population Fragmented Nuclei (%) recorded for this compound, COc1cc(N2CCN(C)CC2)ccc1Nc1ncc2c(n1)N(C)c1ccccc1C(=O)N2C , is 22

Population Fragmented Nuclei (%) recorded for this compound, CCCS(=O)(=O)Nc1ccc(F)c(C(=O)c2c[nH]c3ncc(Cl)cc23)c1F [PLX-4720] , is 25

Population Fragmented Nuclei (%) recorded for this compound, CCN1CCN(Cc2ccc(Nc3ncc(F)c(-c4cc(F)c5nc(C)n(C(C)C)c5c4)n3)nc2)CC1.CS(=O)(=O)O , is 39

Population Fragmented Nuclei (%) recorded for this compound, CN[C@@H]1C[C@H]2O[C@@](C)([C@@H]1OC)n1c3ccccc3c3c4c(c5c6ccccc6n2c5c31)C(=O)NC4 [STAUROSPORINE] , is 61

###

Consider the following molecules and their measured Total Cell Count readings.
Tested on: Fibroblast
Experiment: Multiplex assay against human fibroblast
Type: toxicity, cell-based
Conditions: 12 h, 1 µM, compound concentration 1 uM, replicate 1
I only need the number, thanks.

O=C(Nc1ccc(-c2ccnc(Nc3ccc(N4CCOCC4)cc3)n2)cc1)[C@@H]1CCCN1: 100
O=C1NC(=O)C(c2cnc3ccccn23)=C1c1cn2c3c(cc(F)cc13)CN(C(=O)N1CCCCC1)CC2 [LY-2090314]: 166

Reported Total Cell Count (Fibroblast) for entry O=C(Nc1cccnn1)N1CCC(=Cc2cccc(Oc3ccc(C(F)(F)F)cn3)c2)CC1 is 217

Reported Total Cell Count (Fibroblast) for entry Cc1cn(-c2cc(NC(=O)c3ccc(C)c(Nc4nccc(-c5cccnc5)n4)c3)cc(C(F)(F)F)c2)cn1 [NILOTINIB] is 160

Reported Total Cell Count (Fibroblast) for entry NC(=O)c1cccc(-c2cc(Nc3ccc(OC(F)(F)F)cc3)ncn2)c1 is 205

###

Tested on: Fibroblast
Assay: Multiplex assay against human fibroblast
Type: toxicity, cell-based
Settings: 24 h, 1 µM, compound concentration 1 uM, replicate 1
Measure: Population Mitochondria Different-Phenotype (%)
// return numeric value only (unit: %, not printed)

Population Mitochondria Different-Phenotype (%) recorded for this compound, COc1cc2ncnc(Nc3ccc(F)c(Cl)c3)c2cc1NC(=O)/C=C/CN1CCCCC1 [DACOMITINIB ANHYDROUS] , is 22

Population Mitochondria Different-Phenotype (%) recorded for this compound, O=C1NC(=O)C(c2cnc3ccccn23)=C1c1cn2c3c(cc(F)cc13)CN(C(=O)N1CCCCC1)CC2 , is 17

Population Mitochondria Different-Phenotype (%) recorded for this compound, CCN1CCN(c2ccc(Nc3cc(N(C)C(=O)Nc4c(Cl)c(OC)cc(OC)c4Cl)ncn3)cc2)CC1 , is 29

Population Mitochondria Different-Phenotype (%) recorded for this compound, C=C1/C(=C\C=C2/CCC[C@]3(C)[C@@H]([C@H](C)/C=C/[C@H](C)C(C)C)CC[C@@H]23)C[C@@H](O)C[C@@H]1O , is 2

Population Mitochondria Different-Phenotype (%) recorded for this compound, Cl.O=C(c1ccc(Nc2nccc(-c3cc4ccccc4s3)n2)cc1)N1CCC(N2CCCC2)CC1 , is 3

###

System: U2OS
Experiment: Incucyte cell viability with U2OS; also: filed as whole numbers so only -1 and 0 and 1 occur
Type: toxicity, cell-based
Conditions: human, 6 h, 10 µM, compound concentration 10 uM, replicate number 2, timepoint 6 hours
Measure: Growth Rate
I only need the number, thanks.

// solved cases for Growth Rate follow
S=C(NCCCc1c[nH]cn1)NCCCN(Cc1ccc(Cl)c(Cl)c1)c1ccc(Br)cn1: 0
COc1ccc(S(=O)(=O)N(CCO)c2ccccc2CN(C)C/C=C/c2ccc(Cl)cc2)cc1.O=P(O)(O)O: 1
CC(C)(C(=O)O)c1ccc(C(O)CCCN2CCC(C(O)(c3ccccc3)c3ccccc3)CC2)cc1.Cl (centres undefined) [FEXOFENADINE HYDROCHLORIDE]: 0

Below: the item to evaluate.
Growth Rate recorded for this compound, Cc1c(NC(=O)c2cc(C(N)=O)nc3cc(F)ccc23)c(C(F)(F)F)nn1Cc1ccc(C#N)cc1 , is 0

###

Tested on: Fibroblast
Assay: Multiplex assay against human fibroblast
Type: toxicity, cell-based
Settings: 24 h, 1 µM, compound concentration 1 uM, replicate 1
Measure: Population Mitotic Cells (%)
// return numeric value only (unit: %, not printed)

// solved cases for Population Mitotic Cells (%) follow
O=C(Nc1ccc(-n2nc(-c3cccnc3)cc2C(F)(F)F)cn1)c1ccc(-c2ccccc2)c(F)c1: 38
CCN1CCN(c2ccc(Nc3cc(N(C)C(=O)Nc4c(Cl)c(OC)cc(OC)c4Cl)ncn3)cc2)CC1: 40
CCc1cccc(CC)c1NC(=O)c1nn(C)c2c1CCc1cnc(Nc3ccc(C(=O)NC4CCN(C)CC4)cc3OC(F)(F)F)nc1-2: 52
O=C(Nc1ccc(-c2ccnc(Nc3ccc(N4CCOCC4)cc3)n2)cc1)[C@@H]1CCCN1: 47
O=C1NC(=O)C(c2cnc3ccccn23)=C1c1cn2c3c(cc(F)cc13)CN(C(=O)N1CCCCC1)CC2: 35
CNc1cc(Oc2cc(C(=O)Nc3cc(N4CCN(C)CC4)cc(C(F)(F)F)c3)ccc2C)ncn1: 38
CCc1cccc(CC)c1NC(=O)c1nn(C)c2c1CCc1cnc(Nc3ccc(N4CCN(C)CC4)cc3OC)nc1-2: 19

Population Mitotic Cells (%) recorded for this molecule, CCNc1cc(N[C@H]2CC[C@H](O)CC2)nc(Nc2ccc3c(ccn3Cc3ccccc3)c2)n1 , is 24

###

Tested on: HEK-293T
Assay: Multiplex assay against HEK293T
Format: toxicity, cell-based
Conditions: human, 12 h, 10 µM, compound concentration 10 uM, replicate 2
Consider the following compounds and their measured Population Apoptotic (%) readings.
// return numeric value only (unit: %, not printed)

Cl.O=c1c2cccn2c2ccccc2n1CCCN1CCC(c2ccc(Cl)cc2)CC1: 92

Population Apoptotic (%) recorded for this compound, C=C1/C(=C\C=C2/CCC[C@]3(C)[C@@H]([C@H](C)/C=C/[C@H](C)C(C)C)CC[C@@H]23)C[C@@H](O)C[C@@H]1O , is 13

Population Apoptotic (%) recorded for this compound, CCOc1cc2ncc(C#N)c(Nc3ccc(OCc4ccccn4)c(Cl)c3)c2cc1NC(=O)/C=C/CN(C)C , is 33

Population Apoptotic (%) recorded for this compound, CCCn1c(=O)c2[nH]c(-c3cnn(Cc4cccc(C(F)(F)F)c4)c3)nc2n(CC)c1=O , is 8

Population Apoptotic (%) recorded for this compound, CN1C2CCC1CC(OC(c1ccc(F)cc1)c1ccc(F)cc1)C2.Cl (stereo unspecified) , is 63

Population Apoptotic (%) recorded for this compound, COc1ccc(S(=O)(=O)N(CCO)c2ccccc2CN(C)C/C=C/c2ccc(Cl)cc2)cc1.O=P(O)(O)O , is 13

Population Apoptotic (%) recorded for this compound, CCn1c(=O)c(-c2ccc(-c3cncs3)cc2Cl)cc2cnc(Nc3ccc(N4CCN(C)CC4)cc3)nc21 , is 15

Population Apoptotic (%) recorded for this compound, CN1CCC(=C2c3ccccc3CC(=O)c3sccc32)CC1.O=C(O)/C=C/C(=O)O [KETOTIFEN FUMARATE] , is 54
